Give inhibition at 0.3 µM for every item shown.
- system.name: human EP4 receptor (Homo sapiens, UniProt P35408)
- Construct: expressed in transfected cells; host or cells: FreeStyle293 (HEK293F) cells, transient transfection with pcDNA3.1(+), total membrane fraction
- Sequence (P35408 whole entry): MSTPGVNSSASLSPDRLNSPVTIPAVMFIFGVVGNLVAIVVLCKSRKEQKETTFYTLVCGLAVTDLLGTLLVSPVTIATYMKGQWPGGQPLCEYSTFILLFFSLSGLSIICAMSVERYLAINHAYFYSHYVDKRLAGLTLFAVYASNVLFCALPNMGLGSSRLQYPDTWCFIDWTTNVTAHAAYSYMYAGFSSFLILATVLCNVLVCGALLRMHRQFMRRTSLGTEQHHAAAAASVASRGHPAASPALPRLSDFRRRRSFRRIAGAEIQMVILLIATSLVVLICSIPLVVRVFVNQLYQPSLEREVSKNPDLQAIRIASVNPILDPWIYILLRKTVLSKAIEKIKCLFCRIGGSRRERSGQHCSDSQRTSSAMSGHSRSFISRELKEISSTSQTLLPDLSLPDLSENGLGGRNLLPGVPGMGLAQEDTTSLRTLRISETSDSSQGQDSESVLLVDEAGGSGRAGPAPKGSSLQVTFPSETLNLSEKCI
- test.protocol: hEP4 radioligand binding assay ([3H] PGE2 competitive binding, membrane fractions)
- condition.summary: 300 nM compound; 1 nM [3H] PGE2
Form entry: enter the amount, then its unit.

[in] Query (molecule): C[C@@H](Nc1nccc2c1N(Cc1ccc(C(F)(F)F)cc1)CCO2)c1ccc(C(=O)O)cc1 [Example B32] ; field requested: inhibition at 0.3 µM
[out] 53%

[in] # input molecule: C[C@H](Nc1nccc2c1N(Cc1ccc(F)c(F)c1)CCC2)c1ccc(C(=O)O)cc1 [Example B44] ; wanted: its inhibition at 0.3 µM
[out] 93%

[in] What value of inhibition at 0.3 µM has been reported for the following molecule? O=C(O)c1ccc(C2(Nc3nccc4c3N(Cc3cccc(Cl)c3)CCO4)CC2)cc1 [Example B24]
[out] 100%

[in] So what does the record say about inhibition at 0.3 µM for C[C@H](Nc1nccc2c1N(Cc1ccccn1)CCO2)c1ccc(C(=O)O)cc1 [Example B27] ?
[out] 42%

----------
Could you please report measured inhibition at 0.3 µM for the items listed next?
- system.name: human EP4 receptor (Homo sapiens, UniProt P35408)
- Construct: expressed in transfected cells; host or cells: FreeStyle293 (HEK293F) cells, transient transfection with pcDNA3.1(+), total membrane fraction
- test.protocol: hEP4 radioligand binding assay ([3H] PGE2 competitive binding, membrane fractions)
- condition.summary: 300 nM compound; 1 nM [3H] PGE2
Give the value in % but do not write % after it.

[in] Quick one: inhibition at 0.3 µM for "COC(=O)c1ccc(C2(Nc3nccc4c3N(Cc3ccc(F)c(F)c3)C(=O)CO4)CC2)cc1" ?
[out] 12

[in] Consider the compound shown here: "C[C@H](Nc1nccc2c1N(Cc1cccc(Cl)c1)CCC2)c1ccc(C(=O)O)cc1" What is its recorded inhibition at 0.3 µM?
[out] 100

[in] Give the measured inhibition at 0.3 µM of "C[C@H](Nc1nccc2c1N(Cc1cccc(Cl)c1)CCO2)c1ccc(C(=O)O)cc1" .
[out] 98

[in] Fill blank: measured inhibition at 0.3 µM of the compound "C[C@H](Nc1nccc2c1N(Cc1cccc(F)c1)CCO2)c1ccc(C(=O)O)cc1" is ____.
[out] 97

[in] // lookup inhibition at 0.3 µM for "C[C@H](Nc1nccc2c1N(Cc1ccc(F)c(F)c1)C(=O)CS2)c1ccc(C(=O)O)cc1"
[out] 0.3

[in] What value of measured inhibition at 0.3 µM is listed for "Cc1ccc(CN2CCOc3ccnc(NC4(c5ccc(C(=O)O)cc5)CC4)c32)cc1" ?
[out] 93

[in] Fill blank: measured inhibition at 0.3 µM of the compound "C[C@H](Nc1nccc2c1N(Cc1ccc(C(F)(F)F)cc1)CCN2C)c1ccc(C(=O)O)cc1" is ____.
[out] 42.4

[in] Data request, read-out inhibition at 0.3 µM, for "C[C@H](Nc1ncc(Cl)c2c1N(Cc1ccc(C(F)(F)F)cc1)CCO2)c1ccc(C(=O)O)cc1"
[out] 100

[in] Request the reported inhibition at 0.3 µM associated with "CCONC(=O)c1ccc([C@H](C)Nc2nccc3c2N(Cc2ccc(C(F)(F)F)cc2)CCO3)cc1"
[out] 92

[in] Any idea what inhibition at 0.3 µM was measured for "O=C(O)c1ccc(C2(Nc3nccc4c3N(Cc3cc(F)cc(F)c3)CCO4)CC2)cc1" ?
[out] 96

[in] Which inhibition at 0.3 µM value belongs to "COc1ccc(CN2CCOc3ccnc(NC4(c5ccc(C(=O)O)cc5)CC4)c32)cc1" ?
[out] 87

[in] For "O=C(O)c1ccc(C2(Nc3nccc4c3N(Cc3ccc(Cl)cc3)CCO4)CC2)cc1" , what is its reported inhibition at 0.3 µM?
[out] 92

[in] Param item = "C[C@H](Nc1nccc2c1N(Cc1ccc(-c3ccccc3)cc1)CCO2)c1ccc(C(=O)O)cc1" ; retrieve measured inhibition at 0.3 µM.
[out] 87

[in] Look at this compound and give its reported inhibition at 0.3 µM. "C[C@H](Nc1nccc2c1N(CCc1cccc(Cl)c1)CCO2)c1ccc(C(=O)O)cc1"
[out] 80

[in] Which inhibition at 0.3 µM is listed for C[C@H](Nc1nccc2c1N(Cc1ccc(C(F)(F)F)cc1)CCO2)c1ccc(C(N)=O)cc1 [Example D1] ?
[out] 85

[in] Reported inhibition at 0.3 µM for "COc1cccc(CN2CCOc3ccnc(N[C@@H](C)c4ccc(C(=O)O)cc4)c32)c1" : what is it?
[out] 98

[in] Suppose we examine the compound "C[C@H](Nc1nccc2c1N(Cc1ccc(C(F)(F)F)cc1)CCO2)c1ccc(C(=O)NOCc2ccccc2)cc1" ; what inhibition at 0.3 µM value has been reported?
[out] 88

[in] Item under review: "O=C(O)c1ccc(C2(Nc3nccc4c3N(Cc3ccc(F)c(F)c3)CCO4)CC2)cc1" . Reported inhibition at 0.3 µM?
[out] 83

[in] Any idea what its inhibition at 0.3 µM is? The compound is "C[C@H](Nc1nccc2c1N(Cc1ccc(C(F)(F)F)cc1)CCO2)c1ccc(-c2nnn[nH]2)cc1"
[out] 100

[in] What measured inhibition at 0.3 µM goes with "Cc1noc(C)c1CN1CCOc2ccnc(N[C@@H](C)c3ccc(C(=O)O)cc3)c21" ?
[out] 47

[in] Need inhibition at 0.3 µM, item "C[C@H](Nc1nccc2c1N(Cc1cccc(Cl)c1)CCN2C)c1ccc(C(=O)O)cc1"
[out] 42.5

[in] Reported inhibition at 0.3 µM, compound "Cc1ccc(CN2CCOc3ccnc(N[C@@H](C)c4ccc(C(=O)O)cc4)c32)cc1" : ____
[out] 95

[in] Which inhibition at 0.3 µM is listed for "Cc1cccc(CN2CCOc3ccnc(N[C@@H](C)c4ccc(C(=O)O)cc4)c32)c1" ?
[out] 97

[in] Fill blank: measured inhibition at 0.3 µM of the compound "C[C@H](Nc1nccc2c1N(Cc1cccnc1)CCO2)c1ccc(C(=O)O)cc1" is ____.
[out] 49

[in] Could you tell me which inhibition at 0.3 µM is on file for "CNC(=O)c1ccc([C@H](C)Nc2nccc3c2N(Cc2ccc(C(F)(F)F)cc2)CCO3)cc1" ?
[out] 73

[in] // lookup inhibition at 0.3 µM for "C[C@H](Nc1nccc2c1N(Cc1ccc(F)cc1)CCO2)c1ccc(C(=O)O)cc1"
[out] 97

[in] Please give the measured inhibition at 0.3 µM for this compound: "C[C@H](Nc1nccc2c1N(CC1CCCCC1)CCO2)c1ccc(C(=O)O)cc1"
[out] 100

[in] Find the recorded inhibition at 0.3 µM belonging to "Cc1cnc(N[C@@H](C)c2ccc(C(=O)O)cc2)c2c1OCCN2Cc1cccc(C(F)(F)F)c1" and report it.
[out] 87

[in] State the recorded inhibition at 0.3 µM for this entry: "C[C@H](Nc1ncnc2c1N(Cc1cccc(Cl)c1)CCO2)c1ccc(C(=O)O)cc1"
[out] 88

[in] // lookup inhibition at 0.3 µM for C[C@H](Nc1nccc2c1N(Cc1ccc(C(F)(F)F)cc1)CCO2)c1ccc(C#N)cc1 [Example E1]
[out] 92

[in] Item "COc1ccc(CNc2nccc3c2N(Cc2ccc(F)c(F)c2)CCO3)cc1" has what recorded inhibition at 0.3 µM?
[out] 17

[in] If you can, please state the reported inhibition at 0.3 µM value of "C[C@H](Nc1nccc2c1N(Cc1ccc(C(F)(F)F)cc1)C(=O)CS2)c1ccc(C(=O)O)cc1" .
[out] 49

----------
- system.name: hEP4 (C6 glioma cells overexpressing hEP4) (Homo sapiens)
- Construct: host or cells: C6 glioma cells overexpressing hEP4
- test.protocol: hEP4 cell based assay (cAMP), inhibition of PGE2 induced cAMP, HTRF
- condition.summary: 1 μM compound, PGE2 at EC80
- Method: The functional assay for hEP4 activation and inhibition was carried out via the quantitative determination of agonist, PGE2, induced cAMP response using HTRF in a competitive immunoassay (Cisbio dynamic 2 kit). NCEs at varying concentrations were evaluated for inhibition of PGE2 induced increase in cAMP. Briefly, C6 glioma cells overexpressing hEP4 (Takeda) were cultured in DMEM (low glucose, pyruvate), 10% FBS (Gibco) and PenStep. […]
measurement.kind: inhibition at 1 µM (%)
A number alone suffices; assume %.

[in] Form field: inhibition at 1 µM recorded for C[C@H](Nc1ncc(Cl)c2c1N(Cc1ccc(C(F)(F)F)cc1)CCO2)c1ccc(C(=O)O)cc1 [Example G1] with hEP4 (C6 glioma cells overexpressing hEP4) (Homo sapiens) (enter value)
[out] 92

[in] Item C[C@H](Nc1nccc2c1N(Cc1ccccc1)CCO2)c1ccc(C(=O)O)cc1 [Example B1] with hEP4 (C6 glioma cells overexpressing hEP4) (Homo sapiens) - inhibition at 1 µM?
[out] 100

[in] Identify the measured inhibition at 1 µM of O=C(O)c1ccc(C2(Nc3nccc4c3N(Cc3cccc(Cl)c3)CCO4)CC2)cc1 [Example B24] for hEP4 (C6 glioma cells overexpressing hEP4) (Homo sapiens).
[out] 71

[in] Notebook: pull reported inhibition at 1 µM for hEP4 (C6 glioma cells overexpressing hEP4) (Homo sapiens), entry C[C@H](Nc1nccc2c1N(Cc1ccc(C(F)(F)F)cc1)CCO2)c1ccc(C(=O)NOCc2ccccc2)cc1 [Example D5]
[out] 90

[in] Query inhibition at 1 µM on hEP4 (C6 glioma cells overexpressing hEP4) (Homo sapiens) for CNC(=O)c1ccc([C@H](C)Nc2nccc3c2N(Cc2ccc(C(F)(F)F)cc2)CCO3)cc1 [Example D3]
[out] 84
